Tested on: Saccharomyces cerevisiae
Experiment: protein stability index of tFT-peptide fusion (C-terminal peptide) (PSI (0-1 scale)); higher = more stable (slower turnover)
Details: genetic background: wild type; temperature: 30 C
For each record, write down the corresponding protein stability index.
Form rule: numeric answer, no unit written next to it.

Sure, the documented protein stability index for FTLVDYDKKFHK [ADH7 C-terminal 12 aa] is 0.78

The sequence identified as LQPDVPPSSGRS [KEX2 C-terminal 12 aa] registered its protein stability index at 0.703

Sample SWISNNTNVPKK [ARF3 C-terminal 12 aa] ; protein stability index observed: 0.678

The sequence NRFGVLPDDVEE [ECM1 C-terminal 12 aa] showed protein stability index equal to 0.704
